test.system: Human immunodeficiency virus type 1 reverse transcriptase (Human immunodeficiency virus 1, UniProt Q72547)
protocol.description: Inhibition of HIV1 recombinant wild type reverse transcriptase p66/p51 pre-incubated with compound before enzyme addition using poly(rA) template and measured after 40 mins by picogreen based spectrofluorometry
pIC50: −log10 of the molar value.
Parameter threshold = 4. Response is TRUE when pIC50 meets or exceeds it, else FALSE.

Reference set, count: 3
In [3]: df
Out[3]:
                                        mol  class
0  Cc1cc(C)cc(Cn2c(=O)ccn(CC(=O)NCc3ccccc3)c2=O)c1  FALSE
1  Cc1cc(C)cc(Cn2c(=O)ccn(CC(=O)Nc3ccccc3Cl)c2=O)c1   TRUE
2  Cc1cc(Br)cc(Cn2c(=O)ccn(CC(=O)Nc3ccccc3)c2=O)c1   TRUE

Please indicate if the recorded pIC50 for Cc1cc(C)cc(Cn2c(=O)ccn(CC(=O)Nc3ccc(Cl)cc3)c2=O)c1 meets or exceeds 4.
TRUE

Please indicate if the recorded pIC50 for COc1ccccc1NC(=O)Cn1ccc(=O)n(Cc2cc(C)cc(C)c2)c1=O meets or exceeds 4.
FALSE

Please indicate if the recorded pIC50 for O=C(Cn1ccc(=O)n(Cc2cccc3ccccc23)c1=O)Nc1ccccc1Cl meets or exceeds 4.
TRUE

Please indicate if the recorded pIC50 for Cc1cc(C)cc(Cn2c(=O)ccn(CC(=O)Nc3cccc(C)c3C)c2=O)c1 meets or exceeds 4.
FALSE

Please indicate if the recorded pIC50 for Cc1cc(C)cc(Cn2c(=O)ccn(CC(=O)Nc3ccccc3C)c2=O)c1 meets or exceeds 4.
TRUE

Please indicate if the recorded pIC50 for O=C(Cn1ccc(=O)n(Cc2cc(Cl)cc(Cl)c2)c1=O)Nc1ccccc1Cl meets or exceeds 4.
TRUE

====

test.system: Human immunodeficiency virus type 1 reverse transcriptase (Human immunodeficiency virus 1, UniProt Q72547, Y181C)
protocol.description: Inhibition of HIV1 reverse transcriptase Y181C mutant using radioactively-labeled […] substrate and activated DNA as template-primer complex
recorded.metric: pKi
Entry type: numeric. Quantity: pKi, the -log10 of concentration in molar units.

Tell me the measured pKi of O=C(Cn1ccc(=O)n(Cc2cc(Cl)cc(Cl)c2)c1=O)Nc1ccccc1Cl , please.
4.81

====

test.system: Human immunodeficiency virus type 1 reverse transcriptase (Human immunodeficiency virus 1, UniProt Q72547, K103N/Y181C)
protocol.description: Inhibition of HIV1 reverse transcriptase K103N/Y181C mutant using radioactively-labeled […] substrate and activated DNA as template-primer complex
recorded.metric: Ki (µM)
Just the number in µM, nothing appended.

Tell me the measured Ki of O=C(Cn1ccc(=O)n(Cc2cc(Cl)cc(Cl)c2)c1=O)Nc1ccccc1Cl , please.
69.9

====

protocol.description: Cytotoxicity against human MT4 cells assessed as reduction in cell viability
Type: cell-based
recorded.metric: CC50 (µM)
Just the number in µM, nothing appended.

The following molecules have reported results that may help.
>>> df
                                        mol  recorded_metric  reported_result
0  Cn1c(=O)ccn(Cc2ccccc2OCC(=O)Nc2cccc(Cl)c2)c1=O             CC50              288
1  Cc1cc(C)cc(Cn2c(=O)ccn(CC(=O)Nc3ccccc3C)c2=O)c1             CC50              292

Now for another entry.
Tell me the measured CC50 of O=C(Cn1ccc(=O)n(Cc2cccc3ccccc23)c1=O)Nc1ccccc1Cl , please.
207

====

test.system: Human immunodeficiency virus type 1 reverse transcriptase (Human immunodeficiency virus 1)
protocol.description: Inhibition of HIV1 ribonuclease H pre-incubated with compound before enzyme addition using RNA/DNA heteroduplex and measured after 60 mins by picogreen based spectrofluorometry
measurement.conditions: read-out: IC50
recorded.metric: pIC50
Entry type: numeric. Quantity: pIC50, the -log10 of concentration in molar units.

Tell me the measured pIC50 of O=C(Cn1ccc(=O)n(Cc2cc(Cl)cc(Cl)c2)c1=O)Nc1ccccc1Cl , please.
3.83

====

Reported log10(CC50) values follow for various compounds
protocol.description: Cytotoxicity against human MT4 cells assessed as reduction in cell viability
Assay type: cell-based
Please interpret these as log10 of CC50 where CC50 is in µM.

The following compounds have reported results that may help.
>>> print(df.to_string())
                                        mol  recorded_metric  reported_result
0  Cc1cc(C)cc(Cn2c(=O)ccn(CC(=O)Nc3ccccc3Cl)c2=O)c1      log10(CC50)             1.45
1  C=CCn1c(=O)ccn(Cc2ccccc2OCC(=O)Nc2ccccc2Cl)c1=O      log10(CC50)             1.49

Tell me the measured log10(CC50) of Cc1ccccc1NC(=O)COc1ccccc1Cn1ccc(=O)n(C)c1=O , please.
2.18

Tell me the measured log10(CC50) of COc1ccccc1NC(=O)Cn1ccc(=O)n(Cc2cc(C)cc(C)c2)c1=O , please.
2.36

Tell me the measured log10(CC50) of Cn1c(=O)ccn(Cc2ccccc2OCC(=O)Nc2ccccc2Cl)c1=O , please.
2.15

Tell me the measured log10(CC50) of Cn1c(=O)ccn(Cc2ccccc2OCC(=O)Nc2ccccc2)c1=O , please.
2.18

Tell me the measured log10(CC50) of Cn1c(=O)ccn(Cc2ccccc2OCC(=O)Nc2ccc(Cl)cc2)c1=O , please.
2.00

Tell me the measured log10(CC50) of Cc1cc(C)cc(Cn2c(=O)ccn(CC(=O)Nc3cccc(Cl)c3)c2=O)c1 , please.
2.22

Tell me the measured log10(CC50) of Cc1cc(Br)cc(Cn2c(=O)ccn(CC(=O)Nc3ccccc3)c2=O)c1 , please.
1.52

Tell me the measured log10(CC50) of Cc1cc(C)cc(Cn2c(=O)ccn(CC(=O)NCc3ccccc3)c2=O)c1 , please.
2.28

====

Reported selectivity ratio values follow for various compounds
protocol.description: Selectivity index, ratio of CC50 for human MT4 cells to EC50 for HIV1 3B infected in human MT4 cells
Type: toxicity, cell-based
measurement.conditions: HIV-1 3B infected MT4 cells, read-out: Ratio CC50/EC50

Tell me the measured selectivity ratio of Cn1c(=O)c(F)cn(Cc2ccccc2OCC(=O)Nc2ccccc2Cl)c1=O , please.
< 1

Tell me the measured selectivity ratio of C=CCn1c(=O)ccn(Cc2ccccc2OCC(=O)Nc2ccccc2Cl)c1=O , please.
< 1

Tell me the measured selectivity ratio of Cc1cc(C)cc(Cn2c(=O)ccn(CC(=O)NCc3ccccc3)c2=O)c1 , please.
< 1

Tell me the measured selectivity ratio of CCCn1c(=O)ccn(Cc2ccccc2OCC(=O)Nc2ccccc2Cl)c1=O , please.
< 1

Tell me the measured selectivity ratio of Cc1ccccc1NC(=O)COc1ccccc1Cn1ccc(=O)n(C)c1=O , please.
< 1

Tell me the measured selectivity ratio of Cn1c(=O)ccn(Cc2ccccc2OCC(=O)Nc2cc(Cl)ccc2Cl)c1=O , please.
< 1

Tell me the measured selectivity ratio of Cn1c(=O)ccn(Cc2ccccc2OCC(=O)Nc2ccc(Cl)cc2)c1=O , please.
< 1

Tell me the measured selectivity ratio of Cn1c(=O)ccn(Cc2ccccc2OCC(=O)Nc2ccccc2Cl)c1=O , please.
< 1

Tell me the measured selectivity ratio of Cc1cc(C)cc(Cn2c(=O)ccn(CC(=O)Nc3ccccc3C)c2=O)c1 , please.
38

Tell me the measured selectivity ratio of Cn1c(=O)ccn(Cc2ccccc2OCC(=O)Nc2ccccc2)c1=O , please.
< 1

Tell me the measured selectivity ratio of O=C(Cn1ccc(=O)n(Cc2cc(Cl)cc(Cl)c2)c1=O)Nc1ccccc1Cl , please.
10

Tell me the measured selectivity ratio of Cn1c(=O)c(Cl)cn(Cc2ccccc2OCC(=O)Nc2ccccc2Cl)c1=O , please.
< 1

Tell me the measured selectivity ratio of Cc1cn(Cc2ccccc2OCC(=O)Nc2ccccc2Cl)c(=O)n(C)c1=O , please.
< 1

Tell me the measured selectivity ratio of Cn1c(=O)ccn(Cc2ccccc2OCC(=O)Nc2cccc(Cl)c2)c1=O , please.
< 1

Tell me the measured selectivity ratio of O=C(Cn1ccc(=O)n(Cc2cccc3ccccc23)c1=O)Nc1ccccc1Cl , please.
26

Tell me the measured selectivity ratio of Cc1cc(C)cc(Cn2c(=O)ccn(CC(=O)Nc3ccccc3)c2=O)c1 , please.
25

====

Reported CC50 values follow for various molecules
protocol.description: Cytotoxicity against human MT4 cells assessed as reduction in cell viability
Assay type: cell-based
Just the number in µM, nothing appended.

The following molecules have reported results that may help.
>>> print(df.to_string())
                                        mol  recorded_metric  unit_label  reported_result
0  Cn1c(=O)c(Cl)cn(Cc2ccccc2OCC(=O)Nc2ccccc2Cl)c1=O             CC50          µM             9.37
1  Cc1cc(C)cc(Cn2c(=O)ccn(CC(=O)Nc3ccc(Cl)cc3)c2=O)c1             CC50          µM             77.5
2  Cc1cc(C)cc(Cn2c(=O)ccn(CC(=O)Nc3cccc(C)c3C)c2=O)c1             CC50          µM              276
3  O=C(Cn1ccc(=O)n(Cc2cc(Cl)cc(Cl)c2)c1=O)Nc1ccccc1Cl             CC50          µM             31.1
4  Cn1c(=O)ccn(Cc2ccccc2OCC(=O)Nc2cc(Cl)ccc2Cl)c1=O             CC50          µM             29.5
5  CCCn1c(=O)ccn(Cc2ccccc2OCC(=O)Nc2ccccc2Cl)c1=O             CC50          µM             25.4
6  Cc1cn(Cc2ccccc2OCC(=O)Nc2ccccc2Cl)c(=O)n(C)c1=O             CC50          µM             14.8
7  Cc1cc(C)cc(Cn2c(=O)ccn(CC(=O)Nc3ccccc3)c2=O)c1             CC50          µM              242

Now for another entry.
Tell me the measured CC50 of Cn1c(=O)c(F)cn(Cc2ccccc2OCC(=O)Nc2ccccc2Cl)c1=O , please.
30.3

Data origin: ChEMBL document CHEMBL3396963
